Source: patent US11001587B2

Assay Comment: in vivo
Design: species or system Sprague Dawley rats
Conditions Used: male, Sprague Dawley, rat, po, 50 mg/kg
Recorded measurements of MRT last, one per entry
Your answer should be a plain number; it is taken to be in h.

These solved cases illustrate the format of a correct answer.
| Mol Smiles | MRT last [h] |
| --- | --- |
| Cc1cc(NCc2ccncc2)n2nc(C)c(-c3ccc4c(c3)c(C)nn4C)c2n1 | 6.8 |
| Cc1nc(NCc2ccncc2)n2nc(C)c(-c3ccc4c(c3)c(C)nn4C)c2n1 | 6.8 |
| Cc1cc(NCc2ccncc2)c2nc(C)c(-c3ccc4c(c3)c(C)nn4C)n2n1 | 3.4 |

Need MRT last, item Cc1cc(NCc2ccc(S(N)(=O)=O)cc2)n2nc(C)c(-c3ccc4c(c3)c(C)nn4C)c2n1
7.5

Give the measured MRT last of Cc1ccc(CNc2cc(C)nn3c(-c4ccc5c(c4)c(C)nn5C)c(C)nc23)cn1 .
6.9

Give its MRT last value. Item: Cc1cc(NCc2ccc(S(C)(=O)=O)cc2)n2nc(C)c(-c3ccc4c(c3)c(C)nn4C)c2n1
10.3

====

Test system: Enterovirus 6
Assay Comment: In vitro CPE assay in mammalian cell culture, EV6
Type: cell-based
Conditions Used: viral cytopathic effect in mammalian cell culture, read-out: EV6 inhibition capacity (IC50)
Observable: IC50

| Compound | IC50 |
| --- | --- |
| Cc1cc(NCc2ccc(F)cc2)n2nc(C)c(-c3ccc4c(c3)c(C)nn4C)c2n1 [Example 19] | < 1000 nM |

Given the compound Cc1ccc(CNc2nc(C)nc3c(-c4ccc5c(c4)c(C)nn5C)c(C)nn23)cn1 [Example 22] , what is its reported IC50?
< 1000 nM

Endpoint output: IC50 of Cc1ccc(CNc2cc(C)nc3c(-c4ccc5c(c4)c(C)nn5C)c(C)nn23)cn1 [Example 9] . Value?
< 1000 nM

====

Assay Comment: in vivo
Set-up: species or system Sprague Dawley rats
Conditions Used: male, Sprague Dawley, rat, po, 50 mg/kg
Recorded AUC(0-inf) values for a group of compounds are listed next.
Note: unit ng·h/mL is implicit; provide only the numeric part.

Example entries and their recorded answers appear below.
| Compound | Observable | Assay Value |
| --- | --- | --- |
| Cc1cc(NCc2ccncc2)n2nc(C)c(-c3ccc4c(c3)c(C)nn4C)c2n1 [Example 8] | AUC(0-inf) | 197000 |
| Cc1cc(NCc2ccncc2)c2nc(C)c(-c3ccc4c(c3)c(C)nn4C)n2n1 [Example 1] | AUC(0-inf) | 31800 |

Any idea what its AUC(0-inf) is? The compound is Cc1nc(NCc2ccncc2)n2nc(C)c(-c3ccc4c(c3)c(C)nn4C)c2n1 [Example 20]
115000

====

Below, each of the compounds is paired with its reported IC50 value.
System: coxsackie B2 virus
Assay Comment: In vitro CPE assay in mammalian cell culture, B2
Format: cell-based
Conditions Used: viral cytopathic effect in mammalian cell culture, read-out: B2 inhibition capacity (IC50)

Quick check: IC50 of COc1ccc(CNc2cc(C)nc3c(-c4ccc5c(c4)c(C)nn5C)c(C)nn23)cc1 [Example 10] ?
< 1000 nM

Give the measured IC50 of Cc1cc(NCc2cccs2)c2nc(C)c(-c3ccc4c(c3)c(C)nn4C)n2n1 [Example 5] .
< 100 nM

Entry Cc1cc(NCc2ccc(S(N)(=O)=O)cc2)n2nc(C)c(-c3ccc4c(c3)c(C)nn4C)c2n1 [Example 13] : reported IC50 = ?
< 1000 nM

Can you look up the measured IC50 of Cc1nc(NCc2ccncc2)n2nc(C)c(-c3ccc4c(c3)c(C)nn4C)c2n1 [Example 20] for me?
< 1 nM

What value of IC50 has been reported for the following compound? Cc1cc(NCc2ccc(Cl)cc2)n2nc(C)c(-c3ccc4c(c3)c(C)nn4C)c2n1 [Example 11]
< 1000 nM

====

Assay Comment: Metabolic stability in rat liver microsomes
Assay type: in vitro ADME
Conditions Used: 5 μM test item, 0.125 mg/mL microsomal protein
Remaining after 1 h, RLM for assorted compounds

Consider the following illustrative entries.
| Mol Smiles | Observable | Assay Value |
| --- | --- | --- |
| Cc1cc(NCc2ccncc2)n2nc(C)c(-c3ccc4c(c3)c(C)nn4C)c2n1 | Remaining after 1 h, RLM | 90% |
| Cc1cc(NCc2ccc(S(C)(=O)=O)cc2)n2nc(C)c(-c3ccc4c(c3)c(C)nn4C)c2n1 | Remaining after 1 h, RLM | 71% |

// query Remaining after 1 h, RLM value for entry Cc1nc(NCc2ccncc2)n2nc(C)c(-c3ccc4c(c3)c(C)nn4C)c2n1
96%

State the recorded Remaining after 1 h, RLM for this entry: Cc1cc(NCc2ccncc2)c2nc(C)c(-c3ccc4c(c3)c(C)nn4C)n2n1
88%

Given the compound Cc1cc(NCc2ccc(S(C)(=O)=O)cc2)c2nc(C)c(-c3ccc4c(c3)c(C)nn4C)n2n1 , what is its reported Remaining after 1 h, RLM?
94%

====

Assay Comment: in vitro
Assay type: in vitro ADME
Conditions Used: rat, plasma, pH 7.4
Observable: fraction unbound at 4 h, 5 μM
Give a plain numeric answer without units written out.

| Mol Smiles | fraction unbound at 4 h, 5 μM |
| --- | --- |
| Cc1cc(NCc2ccc(S(C)(=O)=O)cc2)n2nc(C)c(-c3ccc4c(c3)c(C)nn4C)c2n1 | 0.015 |
| Cc1cc(NCc2ccncc2)n2nc(C)c(-c3ccc4c(c3)c(C)nn4C)c2n1 | 0.024 |
| Cc1cc(NCc2ccc(S(C)(=O)=O)cc2)c2nc(C)c(-c3ccc4c(c3)c(C)nn4C)n2n1 | 0.006 |
| Cc1nc(NCc2ccncc2)n2nc(C)c(-c3ccc4c(c3)c(C)nn4C)c2n1 | 0.031 |

Now take the following molecule into account.
Can you share its fraction unbound at 4 h, 5 μM? I mean this molecule: Cc1cc(NCc2ccncc2)c2nc(C)c(-c3ccc4c(c3)c(C)nn4C)n2n1
0.03

====

System: coxsackie B1 virus
Assay Comment: In vitro CPE assay in mammalian cell culture, B1
Assay type: cell-based
Conditions Used: viral cytopathic effect in mammalian cell culture, read-out: B1 inhibition capacity (IC50)
Observable: IC50

| Mol Smiles | Experimental System | IC50 |
| --- | --- | --- |
| COc1ccc(CNc2cc(C)nn3c(-c4ccc5c(c4)c(C)nn5C)c(C)nc23)cn1 | coxsackie B1 virus | < 0.1 µM |
| Cc1cc(NCc2ccc(S(C)(=O)=O)cc2)c2nc(C)c(-c3ccc4c(c3)c(C)nn4C)n2n1 | coxsackie B1 virus | < 0.01 µM |
| Cc1ccc(CNc2cc(C)nn3c(-c4ccc5c(c4)c(C)nn5C)c(C)nc23)cn1 | coxsackie B1 virus | < 0.1 µM |

Please turn your attention to the following entry.
Can you look up the measured IC50 of Cc1cc(NCc2cccs2)n2nc(C)c(-c3ccc4c(c3)c(C)nn4C)c2n1 for me?
< 0.1 µM

====

Tested on: Enterovirus 6
Assay Comment: In vitro CPE assay in mammalian cell culture, EV6
Format: cell-based
Conditions Used: viral cytopathic effect in mammalian cell culture, read-out: EV6 inhibition capacity (IC50)
Below, each entry is listed with its recorded IC50.

Request body: readout IC50, system Enterovirus 6, query Cc1ccc(CNc2cc(C)nn3c(-c4ccc5c(c4)c(C)nn5C)c(C)nc23)cn1 . Return the value.
< 0.1 µM

So what IC50 did Cc1cc(NCc2ccc(NS(C)(=O)=O)cc2)n2nc(C)c(-c3ccc4c(c3)c(C)nn4C)c2n1 get with Enterovirus 6?
< 1 µM

Provide the documented IC50 with Enterovirus 6 as the system for Cc1cc(NCc2ccc(Cl)cc2)c2nc(C)c(-c3ccc4c(c3)c(C)nn4C)n2n1
< 1 µM

Give IC50 (Enterovirus 6) of the following compound: COc1ccc(CNc2nc(C)nc3c(-c4ccc5c(c4)c(C)nn5C)c(C)nn23)cn1
< 1 µM

Form: Entry = Cc1cc(NCc2ccc(C(F)(F)F)nc2)n2nc(C)c(-c3ccc4c(c3)c(C)nn4C)c2n1 | System = Enterovirus 6 | IC50 = ____
< 1 µM

GET /values?readout=IC50&system=Enterovirus 6&item= COc1ccc(CNc2cc(C)nc3c(-c4ccc5c(c4)c(C)nn5C)c(C)nn23)cn1
< 1 µM

Lab note: need IC50 for Cc1nc(NCc2cccs2)n2nc(C)c(-c3ccc4c(c3)c(C)nn4C)c2n1 on Enterovirus 6, anyone have it?
< 0.1 µM

Query IC50 on Enterovirus 6 for COc1ccc(CNc2cc(C)nc3c(-c4ccc5c(c4)c(C)nn5C)c(C)nn23)cc1
< 1 µM

====

IC50, UniProtKB P42356, per-entry values.
Sequence (P42356 whole entry): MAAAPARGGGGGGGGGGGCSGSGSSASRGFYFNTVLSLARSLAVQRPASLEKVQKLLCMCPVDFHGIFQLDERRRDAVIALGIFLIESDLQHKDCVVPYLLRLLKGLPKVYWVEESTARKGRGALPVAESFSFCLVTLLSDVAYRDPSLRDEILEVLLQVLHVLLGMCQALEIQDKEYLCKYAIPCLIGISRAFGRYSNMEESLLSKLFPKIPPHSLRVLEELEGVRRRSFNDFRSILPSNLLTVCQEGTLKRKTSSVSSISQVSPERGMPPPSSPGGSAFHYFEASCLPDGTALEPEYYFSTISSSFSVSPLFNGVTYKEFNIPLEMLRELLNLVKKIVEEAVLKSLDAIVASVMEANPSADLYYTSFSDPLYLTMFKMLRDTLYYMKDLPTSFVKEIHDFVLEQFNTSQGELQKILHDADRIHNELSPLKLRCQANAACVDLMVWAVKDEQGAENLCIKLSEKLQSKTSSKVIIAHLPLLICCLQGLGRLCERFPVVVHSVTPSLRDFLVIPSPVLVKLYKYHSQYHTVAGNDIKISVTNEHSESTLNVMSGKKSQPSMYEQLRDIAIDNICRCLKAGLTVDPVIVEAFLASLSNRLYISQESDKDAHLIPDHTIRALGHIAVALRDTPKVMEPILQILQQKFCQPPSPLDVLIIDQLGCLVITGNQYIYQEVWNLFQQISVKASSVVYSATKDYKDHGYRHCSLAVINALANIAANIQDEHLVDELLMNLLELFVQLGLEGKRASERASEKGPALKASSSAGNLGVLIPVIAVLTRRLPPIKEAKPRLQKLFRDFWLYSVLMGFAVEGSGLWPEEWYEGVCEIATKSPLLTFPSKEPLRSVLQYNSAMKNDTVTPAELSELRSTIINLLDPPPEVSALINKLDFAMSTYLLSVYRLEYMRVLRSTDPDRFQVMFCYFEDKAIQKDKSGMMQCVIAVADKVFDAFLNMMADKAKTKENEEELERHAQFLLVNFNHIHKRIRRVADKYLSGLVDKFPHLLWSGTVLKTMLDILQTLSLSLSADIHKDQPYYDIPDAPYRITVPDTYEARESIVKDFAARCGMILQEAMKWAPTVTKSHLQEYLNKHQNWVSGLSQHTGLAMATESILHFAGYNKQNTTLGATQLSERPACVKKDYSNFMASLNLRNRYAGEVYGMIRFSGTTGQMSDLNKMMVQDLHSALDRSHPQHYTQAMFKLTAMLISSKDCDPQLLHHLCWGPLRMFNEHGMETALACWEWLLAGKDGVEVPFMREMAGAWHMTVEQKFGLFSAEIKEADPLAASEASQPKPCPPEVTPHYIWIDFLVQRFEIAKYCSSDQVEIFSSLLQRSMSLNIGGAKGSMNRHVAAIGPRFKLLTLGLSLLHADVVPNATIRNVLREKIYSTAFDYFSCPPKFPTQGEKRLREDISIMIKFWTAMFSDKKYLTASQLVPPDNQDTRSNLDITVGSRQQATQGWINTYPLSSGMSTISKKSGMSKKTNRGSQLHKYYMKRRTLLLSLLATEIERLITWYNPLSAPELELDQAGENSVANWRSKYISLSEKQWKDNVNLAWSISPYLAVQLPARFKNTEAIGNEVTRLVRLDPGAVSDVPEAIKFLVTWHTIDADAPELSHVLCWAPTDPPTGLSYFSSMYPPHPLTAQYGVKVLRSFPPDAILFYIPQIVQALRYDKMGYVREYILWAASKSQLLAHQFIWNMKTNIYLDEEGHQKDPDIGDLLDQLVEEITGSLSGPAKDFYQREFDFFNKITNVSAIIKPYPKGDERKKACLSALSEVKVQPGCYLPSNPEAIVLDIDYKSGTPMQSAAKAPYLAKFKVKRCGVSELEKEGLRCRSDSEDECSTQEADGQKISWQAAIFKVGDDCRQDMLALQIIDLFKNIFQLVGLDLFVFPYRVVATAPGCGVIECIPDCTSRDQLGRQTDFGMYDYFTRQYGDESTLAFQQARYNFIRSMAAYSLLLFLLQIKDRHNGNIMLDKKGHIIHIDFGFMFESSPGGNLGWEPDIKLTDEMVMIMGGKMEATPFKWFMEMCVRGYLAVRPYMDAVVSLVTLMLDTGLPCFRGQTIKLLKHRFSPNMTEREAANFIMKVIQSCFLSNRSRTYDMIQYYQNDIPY
Answer format: numeric, nM implied, no suffix.

Consider the worked cases shown below.
| Mol Smiles | Experimental System | Result Unit | Assay Value |
| --- | --- | --- | --- |
| Cc1cc(NCc2ccc(S(C)(=O)=O)cc2)n2nc(C)c(-c3ccc4c(c3)c(C)nn4C)c2n1 | UniProtKB P42356 | nM | 800 |
| Cc1cc(NCc2ccncc2)n2nc(C)c(-c3ccc4c(c3)c(C)nn4C)c2n1 | UniProtKB P42356 | nM | 1300 |

Query molecule follows.
# value lookup — system UniProtKB P42356, readout IC50, item Cc1ccc(CNc2cc(C)nn3c(-c4ccc5c(c4)c(C)nn5C)c(C)nc23)cn1
200
